Just for reference, paper PMC4965013 is where these values come from.

Assay: Mouse oral PK single dose
Type: in vivo
Conditions: male, CD-1, mouse, plasma, 140 umol/kg; 140 μmol/kg oral

smiles.input	AUC
CCOC(=O)c1cnc2ccc(OC)cc2c1NCc1ccccc1	< 12 µM·h
CCN(CC)c1cc(C)c2cc(NC(=O)c3cccc(OC)c3)ccc2n1	> 12 µM·h
COc1ccc(C(=O)Nc2ccc3nc(N4CCCCC4)cc(C)c3c2)cc1OC	> 12 µM·h
CCN1CCN(c2cc(C)c3cc(NC(=O)c4ccc(OC)c(OC)c4)ccc3n2)CC1	< 12 µM·h
COc1cc2cc(C(=O)Nc3ccccc3)c(N)nc2cc1OC	> 12 µM·h

* * *

Assay: Kinetic Solubility at pH 7.4 (LC/CLND)
Format: physicochemical
Conditions: pH 7.4, aqueous buffer, kinetic from dmso stock; read-out: Kinetic Solubility >20µM at pH 7.4
Reported solubility kinetic values are given for each entry in this list.
quantity.kind: solubility kinetic

compound	observed
COc1cc2cc(C(=O)Nc3ccccc3)c(N)nc2cc1OC [MMV006767]	> 20 µM
COc1ccc(C(=O)Nc2ccc3nc(N4CCCCC4)cc(C)c3c2)cc1OC [MMV019758]	< 20 µM
CCN(CC)c1cc(C)c2cc(NC(=O)c3cccc(OC)c3)ccc2n1 [MMV000498]	< 20 µM
CCN1CCN(c2cc(C)c3cc(NC(=O)c4ccc(OC)c(OC)c4)ccc3n2)CC1 [MMV019074]	< 20 µM
CCOC(=O)c1cnc2ccc(OC)cc2c1NCc1ccccc1 [MMV665813]	< 20 µM

* * *

System: P. falciparum 3D7 trophozoites
Assay: Metabolomic fingerprint profiling LC-MS
Type: cell-based, Plasmodium falciparum
Settings: metabolite guanosine; S2 Table Metabolomics, change in metabolite level after compound treatment

molecule	guanosine
Cc1cc(NC(=O)C2c3ccccc3C(=O)N(CC(C)C)C2c2cccs2)no1 (centres unmarked)	1.214
COc1cccc(C=Cc2nc(=O)c3ccccc3o2)c1OC	0.8246
Cc1ccc(-c2cc3c(SCC(=O)Nc4cc(C(F)(F)F)ccc4Cl)nccn3n2)cc1	-0.01605
CCOc1cc2c(cc1OCC)C(c1cc(OC)c(O)cc1Cl)NCC2 (centres unmarked)	-1.286
Cc1cc(C)c2c(c1)OCN(Cc1ccccc1Cl)C2	-2.479
CCCc1c(CC)c(=N)c2ccccc2n1C	-0.8003
COc1ccc(C=C2SC(=N)N(c3ccccc3OC)C2=O)cc1	0.4982
CC(C)(C)c1ccc(O)c(CNC2CCCCC2)c1	-0.8871
Cc1cc(Nc2ccc(Cl)cc2)n2nc(C(F)(F)F)nc2n1	0.3651
COc1ccc(C(C)=O)cc1N1C(=O)C2C(C1=O)C1(c3ccccc3)C(=O)C2(c2ccccc2)C(c2ccc(C)cc2)=C1c1ccc(C)cc1 (centres unmarked)	-0.9684
CCC(c1ccccc1)c1nn2c(-c3cccs3)nnc2s1 (centres unmarked)	0.6466
COc1ccc(NC(=O)C2c3ccccc3C(=O)N(CC(C)C)C2c2cccs2)cc1Cl (centres unmarked)	0.8357
CCOC(=O)c1cnc2ccc(CC)cc2c1O	-0.14
CCCN(CCC)CC(O)COc1ccccc1C(=O)Nc1ccccc1 (centres unmarked)	-0.9351
CCOC(=O)c1cn(CC)c2cc(N3CCCCC3)c(F)cc2c1=O	0.7998
Cc1ccc(Nc2nc(-c3ccccn3)cs2)cc1	0.05893
Fc1ccc2[nH]c3c(NCCCN4CCOCC4)ncnc3c2c1	0.1132
CSC1=NC(=Nc2c(C)cccc2C)C2(CCC(C(C)(C)C)CC2)N1c1ccc(Cl)cc1 (centres unmarked)	0.2542
Oc1ccccc1CNCC12CC3CC(CC(C3)C1)C2	-0.149
COc1ccccc1N=C1C(=O)c2ccccc2C(O)=C1N1CCCCC1	0.5678
CCN1CCN(Cc2ccc(NC(=O)c3cc4ccc5cccnc5c4[nH]3)cc2)CC1	0.1417
Cc1ccc(Nc2nc(NCCO)c3ccccc3n2)cc1C	-0.4181
c1ccc2cc3c(Nc4ccc(N5CCOCC5)cc4)ccnc3cc2c1	-0.211

* * *

Tested on: P. falciparum 3D7 trophozoites
Assay: Metabolomic fingerprint profiling LC-MS
Type: cell-based, Plasmodium falciparum
Conditions: metabolite Octoluse Bisphosphate; S2 Table Metabolomics, change in metabolite level after compound treatment

smiles.input	Octoluse Bisphosphate
CCOC(=O)c1cnc2ccc(CC)cc2c1O	0.1604
Oc1ccccc1CNCC12CC3CC(CC(C3)C1)C2	-0.4633
Cc1cc(NCCN2CCCCC2)c2ccc3ccccc3c2n1	-0.09172

* * *

pIC50 values by entry
Test system: P. falciparum 3D7
Test: [3H]-hypoxanthine growth inhibition, modified HCO3- or O2
Format: cell-based
Conditions: Plasmodium falciparum, 3D7, read-out: P. falciparum 3D7 IC50 HCO3- (2g/L); standard media
pIC50: −log10 of the molar value.

compound	pIC50
COc1ccc(-c2nc(NC(=O)CS(=O)(=O)c3ccc(F)cc3)sc2C)cc1 [MMV665915]	6.72
CN1CCN(c2ccc(Nc3c4ccccc4nc4ccccc34)cc2)CC1 [MMV006172]	7.01

* * *

Test system: P. falciparum 3D7 trophozoites
Test: Metabolomic fingerprint profiling LC-MS
Format: cell-based, Plasmodium falciparum
Conditions: metabolite level change after treatment

molecule	lactate
CCOC(=O)c1cn(CC)c2cc(N(C)CCc3ccc(OC)c(OC)c3)c(F)cc2c1=O	-0.4098
CN(C)CCCNc1c2ccccc2nc2ccccc12	-0.5186
CCCCCC(=O)N1c2ccccc2N=C2CC(c3ccc(OC)c(OC)c3)CC(O)=C2C1c1ccc(C(F)(F)F)cc1 (stereo not drawn)	-0.8724
CCCN(CCC)CC(O)COc1ccccc1C(=O)Nc1ccccc1 (stereo not drawn)	1.338
Oc1ccccc1CNCC12CC3CC(CC(C3)C1)C2	-0.4043
CCOC(=O)c1c(NC(=O)c2ccccc2)sc2c(O)c(CN(CC)CC)ccc12	-0.3473
CCN(CC)CCNc1ncnc2c1[nH]c1ccc(Cl)cc12	-0.382
CCc1ccc(Nc2cc(C)c3ccc(O)cc3n2)cc1	-0.3085
COc1cccc(C=Cc2nc(=O)c3ccccc3o2)c1OC	0.2118
CCn1c(CN2CCN(Cc3ccccc3)CC2)nc2cc(NC(=O)c3cccs3)ccc21	-0.4874
CCN1CCN(Cc2ccc(NC(=O)c3cc4ccc5cccnc5c4[nH]3)cc2)CC1	0.3196
CC(C)(C)c1ccc(O)c(CNC2CCCCC2)c1	-0.3018

* * *

Tested on: zebrafish embryos
Assay: Zebrafish embryo toxicity, mortality, behaviour
Assay type: in vivo
Details: 10µM
# Zebrafish % mortality values compiled below

smiles.input	output.unit	Zebrafish % mortality
CCOC(=O)c1cnc2ccc(OC)cc2c1NCc1ccccc1	%	100
CCN1CCN(c2cc(C)c3cc(NC(=O)c4ccc(OC)c(OC)c4)ccc3n2)CC1	%	0
COc1ccc(C(=O)Nc2ccc3nc(N4CCCCC4)cc(C)c3c2)cc1OC	%	13
COc1cc2cc(C(=O)Nc3ccccc3)c(N)nc2cc1OC	%	0
CCN(CC)c1cc(C)c2cc(NC(=O)c3cccc(OC)c3)ccc2n1	%	0

* * *

Test system: P. falciparum 3D7 trophozoites
Assay: Metabolomic fingerprint profiling LC-MS
Type: cell-based, Plasmodium falciparum
Conditions: metabolite sarcosine/alanine; S2 Table Metabolomics, change in metabolite level after compound treatment

molecule	sarcosine/alanine
CCOC(=O)c1cnc2c(C)cc(C)cc2c1Nc1ccc(OC)c(OC)c1 [MMV008294]	-0.5269
CCn1c(CN2CCN(Cc3ccccc3)CC2)nc2cc(NC(=O)c3cccs3)ccc21 [MMV020439]	1.094
Cc1cc(Nc2ccc(C)c(Cl)c2)n2nc(C(F)(F)F)nc2n1 [MMV665874]	0.1358
COc1ccc(-n2ccnc2SCC(=O)Nc2cc(C)ccc2C)c(OC)c1 [MMV019258]	0.199
Cc1cc(NCCN2CCCCC2)c2ccc3ccccc3c2n1 [MMV006203]	0.1849

* * *

Tested on: P. falciparum 3D7 trophozoites
Assay: Metabolomic fingerprint profiling LC-MS
Assay type: cell-based, Plasmodium falciparum
Conditions: metabolite glycerate; S2 Table Metabolomics, change in metabolite level after compound treatment
// returns NOT MET unless glycerate is strictly below 0.4, in which case MET

compound	target.desc	classification
Cc1cc(Nc2ccc(C)c(Cl)c2)n2nc(C(F)(F)F)nc2n1	P. falciparum 3D7 trophozoites	MET
Cc1ccc(Nc2nc(NCCO)c3ccccc3n2)cc1C	P. falciparum 3D7 trophozoites	NOT MET
Cc1cccc(Nc2nc(N)c3ccccc3n2)c1	P. falciparum 3D7 trophozoites	MET
CN1CCN(c2ccc(Nc3c4ccccc4nc4ccccc34)cc2)CC1	P. falciparum 3D7 trophozoites	NOT MET
COc1ccccc1N=C1C(=O)c2ccccc2C(O)=C1N1CCCCC1	P. falciparum 3D7 trophozoites	NOT MET
Cc1ccc(N2C(=O)C3C(C2=O)C2(c4ccccc4)C(=O)C3(c3ccccc3)C(c3ccccc3)=C2c2ccccc2)cc1 (stereo not shown)	P. falciparum 3D7 trophozoites	MET
CCc1c(C)c(=N)c2ccccc2n1C	P. falciparum 3D7 trophozoites	MET
CN(C)c1ccc(C=Cc2nc(=O)c3ccccc3o2)cc1	P. falciparum 3D7 trophozoites	MET
CCCN(CCC)CC(O)COc1ccccc1C(=O)Nc1ccccc1 (stereo not shown)	P. falciparum 3D7 trophozoites	NOT MET
Cc1cc(Nc2ccc3ccccc3c2)n2ncnc2n1	P. falciparum 3D7 trophozoites	MET
